system: ACHN renal; test: NCI tumour cell line growth inhibition, 48 h; in the data active means GI50 below about 0.43 µM; inactive means the rest
Labels: yes (1) for active, no (0) for inactive

>>> print(df.to_string())
                                   molecule  assigned_category
0  CC(C)N(CCNc1nc(C(Cl)(Cl)Cl)nc2cc(Cl)ccc12)C(C)C             no (0)
1  CCN(CC)CCN1C(=O)c2c(c3c4cccc(Cl)c4n(C4OC(CO)C(OC)C(O)C4O)c3c3[nH]c4c(Cl)cccc4c23)C1=O (stereo not drawn)            yes (1)
2  COc1ccc(/C=C/C(=O)C(=O)/C=C/c2ccc(OC)c(OC)c2)cc1OC             no (0)
